Origin of measurements: ChEMBL document CHEMBL4831514

- Test system: A549
- ASSAY_DETAILS: Cytotoxicity against human A549 cells assessed as reduction in cell viability incubated for 48 hrs by MTT assay
- Format: cell-based
- CONDITION_CONTEXT: a549, 48 h
QUANTITY_NAME: CC20 (µM)
API: value field is a number in µM; no unit string.

q: Tell me the measured CC20 of C#CCNC(=O)CCCCCCCCCC(=O)OC[C@]12CC[C@@H](C(=C)C)[C@@H]1[C@H]1CC[C@@H]3[C@@]4(C)CC[C@H](O)C(C)(C)[C@@H]4CC[C@@]3(C)[C@]1(C)CC2 , please.
a: 38.46

q: Tell me the measured CC20 of C=C(C)[C@@H]1CC[C@]2(COC(=O)c3ccccc3C(=O)N3CCOCC3)CC[C@]3(C)[C@H](CC[C@@H]4[C@@]5(C)CC[C@H](O)C(C)(C)[C@@H]5CC[C@]43C)[C@@H]12 , please.
a: 35.87

q: Tell me the measured CC20 of C#CCNC(=O)CCC(=O)OC[C@]12CC[C@@H](C(=C)C)C1[C@H]1CC[C@@H]3[C@@]4(C)CC[C@H](O)C(C)(C)[C@@H]4CC[C@@]3(C)[C@]1(C)CC2 (single isomer, unassigned) , please.
a: 10.78

q: Tell me the measured CC20 of Nc1nc2c(ncn2COCCO)c(=O)[nH]1 , please.
a: 196.08

q: Tell me the measured CC20 of C=C(C)[C@@H]1CC[C@]2(CO)CC[C@]3(C)[C@H](CC[C@@H]4[C@@]5(C)CC[C@H](O)C(C)(C)[C@@H]5CC[C@]43C)[C@@H]12 , please.
a: 28.22

q: Tell me the measured CC20 of NC(=O)c1ncn([C@@H]2O[C@H](CO)[C@@H](O)[C@H]2O)n1 , please.
a: 409.84

q: Tell me the measured CC20 of C=C(C)[C@@H]1CC[C@]2(COC(=O)CCC(=O)O)CC[C@]3(C)[C@H](CC[C@@H]4[C@@]5(C)CCC(O)C(C)(C)[C@@H]5CC[C@]43C)[C@@H]12 (single isomer, unassigned) , please.
a: 11.51

q: Tell me the measured CC20 of C=C(C)[C@@H]1CC[C@]2(COC(=O)CCCC(=O)N3CCOCC3)CC[C@]3(C)[C@H](CC[C@@H]4[C@@]5(C)CC[C@H](O)C(C)(C)[C@@H]5CC[C@]43C)[C@@H]12 , please.
a: 18.85

q: Tell me the measured CC20 of C=C(C)[C@@H]1CC[C@]2(COC(=O)/C=C(\C)C(=O)O)CC[C@]3(C)[C@H](CC[C@@H]4[C@@]5(C)CC[C@H](O)C(C)(C)[C@@H]5CC[C@]43C)[C@@H]12 , please.
a: 11.26

q: Tell me the measured CC20 of C=C(C)[C@@H]1CC[C@]2(COC(=O)/C=C(\C)C(=O)N3CCCCC3)CC[C@]3(C)[C@H](CC[C@@H]4[C@@]5(C)CC[C@H](O)C(C)(C)[C@@H]5CC[C@]43C)[C@@H]12 , please.
a: 34.34

q: Tell me the measured CC20 of C=C(C)[C@@H]1CC[C@]2(COC(=O)CCCC(=O)N3CCSCC3)CC[C@]3(C)[C@H](CC[C@@H]4[C@@]5(C)CC[C@H](O)C(C)(C)[C@@H]5CC[C@]43C)[C@@H]12 , please.
a: 122.7

q: Tell me the measured CC20 of C#CCNC(=O)CCCC(=O)OC[C@]12CC[C@@H](C(=C)C)[C@@H]1[C@H]1CC[C@@H]3[C@@]4(C)CC[C@H](O)C(C)(C)[C@@H]4CC[C@@]3(C)[C@]1(C)CC2 , please.
a: 42.09

q: Tell me the measured CC20 of C=C(C)[C@@H]1CC[C@]2(COC(=O)c3ccccc3C(=O)N3CCCCC3)CC[C@]3(C)[C@H](CC[C@H]4C3(C)CC[C@H]3C(C)(C)[C@@H](O)CC[C@@]34C)[C@@H]12 (single isomer, unassigned) , please.
a: 65.45

q: Tell me the measured CC20 of C#CC1(NC(=O)CCC(=O)OC[C@]23CC[C@@H](C(=C)C)[C@@H]2[C@H]2CC[C@@H]4[C@@]5(C)CC[C@H](O)C(C)(C)[C@@H]5CC[C@@]4(C)[C@]2(C)CC3)CCCCC1 , please.
a: 110.38

q: Tell me the measured CC20 of C=C(C)[C@@H]1CC[C@]2(COC(=O)CCCCCCCCCC(=O)N3CCCCC3)CC[C@]3(C)[C@H](CC[C@@H]4[C@@]5(C)CC[C@H](O)C(C)(C)[C@@H]5CC[C@]43C)[C@@H]12 , please.
a: 127.23

q: Tell me the measured CC20 of C#CCNC(=O)c1cccc(C(=O)OC[C@]23CC[C@@H](C(=C)C)[C@@H]2[C@H]2CC[C@@H]4C5(C)CC[C@H](O)C(C)(C)[C@@H]5CC[C@@]4(C)[C@]2(C)CC3)c1 (single isomer, unassigned) , please.
a: 159.24

q: Tell me the measured CC20 of C=C(C)[C@@H]1CC[C@]2(COC(=O)CSCC(=O)O)CC[C@]3(C)[C@H](CC[C@@H]4[C@@]5(C)CC[C@H](O)C(C)(C)[C@@H]5CC[C@]43C)[C@@H]12 , please.
a: 21.08

q: Tell me the measured CC20 of C#CC1(NC(=O)c2cccc(C(=O)OC[C@]34CC[C@@H](C(=C)C)[C@@H]3[C@H]3CC[C@@H]5[C@@]6(C)CC[C@H](O)C(C)(C)[C@@H]6CC[C@@]5(C)[C@]3(C)CC4)c2)CCCCC1 , please.
a: 104.82

q: Tell me the measured CC20 of C=C(C)[C@@H]1CC[C@]2(COC(=O)CCCC(=O)O)CC[C@]3(C)[C@H](CC[C@@H]4[C@@]5(C)CC[C@H](O)C(C)(C)[C@@H]5CC[C@]43C)[C@@H]12 , please.
a: 22.44

q: Tell me the measured CC20 of C=C(C)[C@@H]1CC[C@]2(COC(=O)c3ccccc3C(=O)O)CC[C@]3(C)[C@H](CC[C@@H]4[C@@]5(C)CC[C@H](O)C(C)(C)[C@@H]5CC[C@]43C)[C@@H]12 , please.
a: 21.15

----------
- Test system: MDCK
- ASSAY_DETAILS: Cytotoxicity against MDCK cells assessed as reduction in cell viability incubated for 72 hrs by MTT assay
- Assay type: cell-based, Canis lupus familiaris
- CONDITION_CONTEXT: dog, mdck, 72 h
QUANTITY_NAME: CC20 (µM)
API: value field is a number in µM; no unit string.

q: Tell me the measured CC20 of C=C(C)[C@@H]1CC[C@]2(COC(=O)CCCCCCCCCC(=O)O)CC[C@]3(C)[C@H](CC[C@@H]4[C@@]5(C)CC[C@H](O)C(C)(C)[C@@H]5CC[C@]43C)[C@@H]12 , please.
a: 10.2

q: Tell me the measured CC20 of C#CC1(NC(=O)CCCCCCCCCC(=O)OC[C@]23CC[C@@H](C(=C)C)[C@@H]2[C@H]2CCC4[C@@]5(C)CC[C@H](O)C(C)(C)[C@@H]5CC[C@@]4(C)[C@]2(C)CC3)CCCCC1 (single isomer, unassigned) , please.
a: 102.46

q: Tell me the measured CC20 of C=C(C)[C@@H]1CC[C@]2(COC(=O)/C=C(\C)C(=O)N3CCSCC3)CC[C@]3(C)[C@H](CC[C@@H]4[C@@]5(C)CC[C@H](O)C(C)(C)[C@@H]5CC[C@]43C)[C@@H]12 , please.
a: 61.5

q: Tell me the measured CC20 of C=C(C)[C@@H]1CC[C@]2(COC(=O)CCC(=O)O)CC[C@]3(C)[C@H](CC[C@@H]4[C@@]5(C)CCC(O)C(C)(C)[C@@H]5CC[C@]43C)[C@@H]12 (single isomer, unassigned) , please.
a: 11.51

q: Tell me the measured CC20 of C=C(C)[C@@H]1CC[C@]2(COC(=O)/C=C(\C)C(=O)N3CCCCC3)CC[C@]3(C)[C@H](CC[C@@H]4[C@@]5(C)CC[C@H](O)C(C)(C)[C@@H]5CC[C@]43C)[C@@H]12 , please.
a: 4.26

q: Tell me the measured CC20 of C=C(C)[C@@H]1CC[C@]2(COC(=O)CCCC(=O)O)CC[C@]3(C)[C@H](CC[C@@H]4[C@@]5(C)CC[C@H](O)C(C)(C)[C@@H]5CC[C@]43C)[C@@H]12 , please.
a: 11.22

q: Tell me the measured CC20 of C#CCNC(=O)c1ccccc1C(=O)OC[C@]12CC[C@@H](C(=C)C)[C@@H]1[C@H]1CC[C@@H]3[C@@]4(C)CC[C@H](O)C(C)(C)[C@@H]4CC[C@@]3(C)[C@]1(C)CC2 , please.
a: 159.24

q: Tell me the measured CC20 of C=C(C)[C@@H]1CC[C@]2(COC(=O)CCC(=O)N3CCOCC3)CC[C@]3(C)[C@H](CC[C@@H]4[C@@]5(C)CC[C@H](O)C(C)(C)[C@@H]5CC[C@]43C)[C@@H]12 , please.
a: 4.78

q: Tell me the measured CC20 of C=C(C)[C@@H]1CC[C@]2(COC(=O)/C=C(\C)C(=O)O)CC[C@]3(C)[C@H](CC[C@@H]4[C@@]5(C)CC[C@H](O)C(C)(C)[C@@H]5CC[C@]43C)[C@@H]12 , please.
a: 5.63

q: Tell me the measured CC20 of C#CCNC(=O)CCCCCCCCCC(=O)OC[C@]12CC[C@@H](C(=C)C)[C@@H]1[C@H]1CC[C@@H]3[C@@]4(C)CC[C@H](O)C(C)(C)[C@@H]4CC[C@@]3(C)[C@]1(C)CC2 , please.
a: 153.85
